ASSAY NAME: folding stability dG unfold (combined trypsin and chymotrypsin); higher = more stable
Note: every record was labeled by where its folding stability dG unfold sits among L: < 2 kcal/mol; M: ≥ 2 kcal/mol and < 3 kcal/mol; H: ≥ 3 kcal/mol

For orientation, consider the following solved cases.
> print(dat)
                             sequence.chain  cat
1  SAGGSAGGSAKPKLHIHILTAGPFEELAELLEELAKRIFPPELEIDIHIHYIPKELLHPELGSAGGSAGGSA [r18_498_TrMRF]    M
2  MPSVTLPVTLVLDTRRPDGRPLTPEQVRALAEAAVRELAEATGVDVEADVTVTPLGPEGRAVVDVVVTVRPS [r1_231_TrMRF]    L
3  SAGGLEAKITEIDEDGYLRIEIVDPETGELIAEIRIKIELPPPPPVPETEEVLDEDGRKRTVTRLYDRSAGG [r13_9_TrROS_Hall]    L
4  PLVLRLPDGAEAVRVEFFPERNTVVAFFRAPDRLLVVEVRFEPVGGGLLAPVRVRALPVPPTPEQLRLLAES [r1_154_TrMRF]    M
5  SISITLPDGTKTVSQSFNPEGNTITYTMEAPGKKITITLTEKVVGGSKEISVKITTDPVPLTPEEVAALKAS [r1_154_JUSTAS]    L

Hey, which category is SAGGTVTIFIPGMSLDQIKKFIKFFRDNPDRPVTIHMPNGYMIEIDPKGKIDNIKVRRMPPMPEDDQSAGGS [r16_248_TrROS] in, do you know?
M

Hey, which category is SAGGSASPEKVAEELKKKGYKEVKITKDPNTNVTTVTVEDPSGKKYTLTVDPKNPTVVSKKEFSLDSAGGSA [r15_648_JUSTAS] in, do you know?
L

Hey, which category is SAGGSAGGSPWKKVKFKFMFPFPNYYVRISIEIWVNPGDNEIMIEMSIEIFPIPPGDNKAFKDSAGGSAGGS [r12_885_TrROS] in, do you know?
H

Hey, which category is SAGGSYMVKVEWRNNNKEMEMTHPFDDPEDALNFAHDLLPNGMELDIEVFDPKEGEPIGTVPFRVDSAGGSA [r2_390_TrROS] in, do you know?
L

Hey, which category is SAGGSAGGSAGMMVVRAKIKLPNGEVLEIENMSLEEILALAKEKGYEIVDIEVVAPDEEPSAGGSAGGSAGG [r11_283_TrMRF] in, do you know?
H

###

ASSAY NAME: folding stability dG unfold (combined trypsin and chymotrypsin); higher = more stable
Binary classification by folding stability dG unfold, with 0.6 kcal/mol as an inclusive lower bound for 1.0; all other cases are 0.0.

> print(dat)
                             sequence.chain  cat
1  SAGGSAGGSPDLPELNIEPVSTLPDGSKIYRADVSPEAIARLKAANPAVTVEEHPDFLLLFLRESAGGSAGG [r6_395_JUSTAS]  0.0
2  SAGGEEKVITKEETITVPPDAGTITISSNEVIKDPNSSYTYYVKESKTVSRDPNSNVYTITLKIKVEKSAGG [r13_574_JUSTAS]  1.0
3  SAGMEVTVTDPIPLDPTPDGVPDVKPELVEERAKAAGFTDEIESVDTTPKPDSVTTTVTHPTATLTAGSAGG [r19_398_JUSTAS]  0.0

Answer whether folding stability dG unfold of SAGGSAGGSAGGGKKKVTVEFVIKVPKNSKPVFFTIKGGIKVEFYPIPDTNYALVKVTFGSAGGSAGGSAGG [r7_796_TrMRF] is greater than or equal to 0.6 kcal/mol.
1.0

###

ASSAY NAME: folding stability dG unfold (combined trypsin and chymotrypsin); higher = more stable
Binary classification by folding stability dG unfold, with 2 kcal/mol as an inclusive lower bound for fulfilled; all other cases are not fulfilled.

For orientation, consider the following solved cases.
> print(dat)
                             sequence.chain            cat
1  SAGGSAGGSAGKEKTITVLLEVDGYLVVAEVKLNEDGSLEITSVKVIKLPKPKPSPEALKSAGGSAGGSAGG [r11_843_TrROS_Hall]  not fulfilled
2  SAGGSAMKYTLKDKDGKTITIEVEEHENPDGEPWYEVDIEHPNDGKEKKVYMPPNNPEEFAKKFLKSAGGSA [r15_92_TrROS]  not fulfilled
3  SAGGMDDVIRKALEEATPPLEVKEELILTTEPTPRGTVITKTTRPIIKSPEPGTFVPEPVEVVPAALLSAGG [r19_11_JUSTAS]  not fulfilled
4  MSEEELRELEERLAAPGPVEVRVEVEVREEEGDEPVFVFRVRYYRPEPGEELGEEEIVVPEEELEELLRELS [r1_415_TrMRF]  not fulfilled

Alright, here's another sequence for you.
Answer whether folding stability dG unfold of SAGGSAGGPEIKVLEVRKLPDGSFEFIVEVPPGDAEKIKSGTVVKIKFGDKEYDVTVEVIPTEGSAGGSAGG [r6_372_TrMRF] is greater than or equal to 2 kcal/mol.
fulfilled

###

ASSAY NAME: folding stability dG unfold (combined trypsin and chymotrypsin); higher = more stable
Parameter folding stability dG unfold: see the listing below.
I only need the number, in kcal/mol, no unit after it.

As a guide, the following entries are already answered.
> print(dat)
                             sequence.chain  unit.text  recorded.number
1  SAGDWMMVEMTVDFPPDQITEEEIKQALQEHFGEVEIDWNPGDGRIPITVYMPPGDMNKIQDALKEAGLSAG [r5_378_TrROS]   kcal/mol            0.218
2  MYVVRAKFKIKGEDGSEFEAETVILVEETPEEAKEKVEEKAREIAEELGLSLENITEIEVEVLSLDEELLPS [r1_159_TrMRF]   kcal/mol             2.12
3  SAGGMVEVKPFEIKPPGSSITVTLTDPQGNVIGSTTVSVPTGRLELTITVEPDKTVKVTLTELPPSEVSAGG [r13_935_JUSTAS]   kcal/mol             1.01
4  SAGGSAGGPSPNQPERQQVQVEAKIRFPDPNGKEWTIEITAYGSVGDARDAARSLAREIKNGKISAGGSAGG [r6_944_TrROS]   kcal/mol           -0.484
5  SAGGSAGGSAMELVVKEVEYRGPLSLSIEEIAEEIEKKEGIKVIELEEYPDEKVKITIEKVSAGGSAGGSAG [r3_66_JUSTAS]   kcal/mol            0.485

Answer with the recorded folding stability dG unfold of SAGNFKIDINPENNMIMIKSPNGWFMFPFTYTRTQPEPDPDDPNEWKQRPRTETHYIMMPANDLKDLLNSAG [r5_234_TrROS] only.
0.541

Answer with the recorded folding stability dG unfold of SAGGSAGGSGVEITLPNKDELIEYLKKKFAEKGGKIKKIKIEPIGPNMYKALIETDPNDPYFKSAGGSAGGS [r12_647_TrMRF] only.
0.611

Answer with the recorded folding stability dG unfold of LEIIEKLKFPGYKITSVSIQRTNNKVTIVIHFRHPKEYYMISLEIDPPNGGIKITEVHPIKPGESMDDMMNS [r1_383_TrROS] only.
3.43

Answer with the recorded folding stability dG unfold of SAGGSAVPAEAKKKVFLKPVKVNIPLPGNYEIVEIDPKTGKIVIKVPGSSKTLVVDLKSGKVYEFGSAGGSA [r15_452_TrMRF] only.
1.51

Answer with the recorded folding stability dG unfold of SAGPEVVVFKGIEVEVTEVPPELLENLPPDVIAIPFGDRVLLIRVREYDVARFPPIPPLGANPETGELSSAG [r14_126_TrMRF] only.
2.44

Answer with the recorded folding stability dG unfold of SAGKKKKIKIKVKIIVNGKLKEIEIEVDENKTLEEILAEIKKKLPKNAIIIITNENGEKKIIILPKEELSAG [r5_77_TrROS_Hall] only.
1.89

Answer with the recorded folding stability dG unfold of SAGGDPIEDIVKEIAEEHGYPIKNVEVEPVDPNTLVVEVQMPNGYRIKIEIPYDPDGDLNINVEWEPSAGGS [r8_284_TrROS] only.
1.65

Answer with the recorded folding stability dG unfold of SAGGSAPPNIEREEYEFYLRNPDGKELGPAKIEVIRDPGDPDRPILTIEWPNGEPMLFDADDIEPLSAGGSA [r15_954_TrROS] only.
0.317

Answer with the recorded folding stability dG unfold of SAGGSAGGSAGMKVELSVAPDPATGEPVLLFHFEDFTLALNPNTGAIGVYLKDEVELFELSAGGSAGGSAGG [r17_544_TrMRF] only.
2.03

###

ASSAY NAME: folding stability dG unfold from chymotrypsin proteolysis; higher = more stable
Parameter folding stability dG unfold: see the listing below.
I only need the number, in kcal/mol, no unit after it.

Answer with the recorded folding stability dG unfold of SFKLEKTITLPDYVLKIEVTFKPKPDKTVIAPIKVTIYDPVKKKPYTKELTKPFPPEDPLKFVEEALKEIFS [r1_171_TrMRF] only.
0.235

Answer with the recorded folding stability dG unfold of SAGGSAGGMVETKLVESEELPGNRRVLTYRVTEPDSLYRVTVELTLDPSGTVLSSKTTTEPIPLSAGGSAGG [r6_20_JUSTAS] only.
1.12

Answer with the recorded folding stability dG unfold of SAGGSAGGMKIEPIAEDEDYIVVRVEPDLPELLEELGLEVVGVEEEGDYVIVVVKVPPEVREKFSAGGSAGG [r6_108_TrMRF] only.
-0.0352

Answer with the recorded folding stability dG unfold of SMVIPPGSRAEFRLEDVPVRLEVEEGSGKVHFRVFSPENPDEEVFEAEFDINDLKPLDLPPELREAFEKESA [r9_1051_TrMRF] only.
1.18

Answer with the recorded folding stability dG unfold of SAGRIKSIQINPYENPNGQYPITVRVRWPGNGKERDRNFPMSPNDARNQAKELAKELPGKPLEIDEITSAGG [r19_317_TrROS] only.
-0.545

Answer with the recorded folding stability dG unfold of SAGGAEEARKAGRPVLLTVTVTAPGSGKVSTLPLLVPADRPVDVEALVAALFPADWAVTVSVSPVGGSAGGS [r8_127_JUSTAS] only.
1.37

Answer with the recorded folding stability dG unfold of SAGGEEPKRKTVEVPAGQPISELLDALKQYDEVQIRMGNGEEHEIPPNDPPDLEDLPLPPGNTFEIEVSAGG [r13_399_TrROS] only.
-0.126

Data origin, for the record: the supplement of paper PMC12764529
